Tested on: HCC1569;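 also: TDF denotes transformed human dermal fibroblasts of mesenchymal origin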
Assay text: cell number relative to DMSO (% of DMSO); higher = more cells (less growth inhibition / toxicity)
Condition notes: concentration: 10 µM; 24 h
Assign YES whenever cell number does not fall below 100; assign NO whenever it does.

INSERT INTO results (compound, experimental_target, assigned_category) VALUES
  ('C=C1C(=O)OC2C1CCC(=C)C1CCC(=C)C12 (stereo not drawn) [Dehydrocostus lactone]', 'HCC1569', 'NO'),
  ('CC(C)NCC(O)c1ccc(O)c(O)c1.O=C(O)C(O)C(O)C(=O)O (stereo not drawn) [S(+)-Isoproterenol (+)-bitartrate]', 'HCC1569', 'YES'),
  ('CC1OC(OCC2OC(Oc3c(-c4ccc(O)c(O)c4)oc4cc(O)cc(O)c4c3=O)C(O)C(O)C2O)C(O)C(O)C1O (stereo not drawn)', 'HCC1569', 'YES'),
  ('C[N+](C)(C)C(Cc1c[nH]c(=S)[nH]1)C(=O)[O-] (stereo not drawn)', 'HCC1569', 'YES'),
  ('OC1C=C2CCN3Cc4cc5c(cc4C(C1O)C23)OCO5 (stereo not drawn)', 'HCC1569', 'NO'),
  ('CCOC(=O)Oc1c(OC)cc(C(=O)OC2CC3CN4CCc5c([nH]c6cc(OC)ccc56)C4CC3C(C(=O)OC)C2OC)cc1OC (stereo not drawn)', 'HCC1569', 'NO'),
  ('Nc1ncnc2c1ncn2C1OC(CO)C(O)C1O (stereo not drawn)', 'HCC1569', 'YES'),
  ('N#CC(=C1Nc2ccccc2S1)c1ccnc(NCCc2cccnc2)n1', 'HCC1569', 'NO');

Values were extracted from the supplement of paper PMC7156485.
